For reference, IC50 measured on Prostaglandin G/H synthase 2 (Ovis aries, UniProt P79208):

> print(dat)
                                   compound                                       tgt  recorded.value
1  C=C[C@@]1(C)CC=C2C(CCC3[C@](C)(C(=O)OC)CCC[C@@]23C)C1 (some centres undefined)  Prostaglandin G/H synthase 2 (Ovis aries, UniProt P79208)       > 1000 µM
2  COCC[C@@]1(C)CC=C2C(CCC3[C@](C)(C(=O)O)CCC[C@@]23C)C1 (some centres undefined)  Prostaglandin G/H synthase 2 (Ovis aries, UniProt P79208)       > 1000 µM
3  C[C@]1(CCO)CC=C2C(CCC3[C@](C)(C(=O)O)CCC[C@@]23C)C1 (some centres undefined)  Prostaglandin G/H synthase 2 (Ovis aries, UniProt P79208)       > 1000 µM
4  C=C[C@@]1(C)CC=C2C(CCC3[C@](C)(C(N)=O)CCC[C@@]23C)C1 (some centres undefined)  Prostaglandin G/H synthase 2 (Ovis aries, UniProt P79208)       > 1000 µM
5  C[C@]1(CCF)CC=C2C(CCC3[C@](C)(C(=O)F)CCC[C@@]23C)C1 (some centres undefined)  Prostaglandin G/H synthase 2 (Ovis aries, UniProt P79208)          194 µM
6  C=C[C@@]1(C)CC=C2C(CCC3[C@](C)(CCC/C=C/C(=O)O)CCC[C@@]23C)C1 (some centres undefined)  Prostaglandin G/H synthase 2 (Ovis aries, UniProt P79208)         13.2 µM
7  CC(=O)OCC[C@@]1(C)CC=C2C(CCC3[C@](C)(C(=O)O)CCC[C@@]23C)C1 (some centres undefined)  Prostaglandin G/H synthase 2 (Ovis aries, UniProt P79208)       > 1000 µM
8  C=C[C@@]1(C)CC=C2C(CCC3[C@](C)(CC(=O)O)CCC[C@@]23C)C1 (some centres undefined)  Prostaglandin G/H synthase 2 (Ovis aries, UniProt P79208)         82.3 µM

Quick check: IC50 on Prostaglandin G/H synthase 2 (Ovis aries, UniProt P79208), item C[C@@]1(C2CO2)CC2CCC3[C@](C)(C(=O)O)CCC[C@@]3(C)[C@@]23O[C@H]3C1 (some centres undefined) ?
> 1000 µM
